Examples of molecules with documented pIC50 follow.
target: Cysteine proteinase falcipain 3 (Plasmodium falciparum (isolate 3D7)); assay: In Vitro Inhibition Assay
pIC50: −log10 of the molar value.

{"Chemical Smiles": "O=C(CCc1nc(CO)c(CCc2ccccc2)s1)CSCCCc1ccccc1", "pIC50": "< 4.30"}
{"Chemical Smiles": "O=C(CCc1nc(CCc2ccccc2)c(CCCO)s1)CSCCCc1ccccc1", "pIC50": "< 4.30"}

Could you now look at the following molecule, please?
Please report pIC50 with Cysteine proteinase falcipain 3 (Plasmodium falciparum (isolate 3D7)) for item CC(=O)NCCCc1sc(CCC(=O)CSCCCc2ccccc2)nc1CCc1ccccc1 .
< 4.30

====

Examples of molecules with documented pIC50 follow.
Target: UniProt Q9NBD4
Sequence (Q9NBD4 whole entry): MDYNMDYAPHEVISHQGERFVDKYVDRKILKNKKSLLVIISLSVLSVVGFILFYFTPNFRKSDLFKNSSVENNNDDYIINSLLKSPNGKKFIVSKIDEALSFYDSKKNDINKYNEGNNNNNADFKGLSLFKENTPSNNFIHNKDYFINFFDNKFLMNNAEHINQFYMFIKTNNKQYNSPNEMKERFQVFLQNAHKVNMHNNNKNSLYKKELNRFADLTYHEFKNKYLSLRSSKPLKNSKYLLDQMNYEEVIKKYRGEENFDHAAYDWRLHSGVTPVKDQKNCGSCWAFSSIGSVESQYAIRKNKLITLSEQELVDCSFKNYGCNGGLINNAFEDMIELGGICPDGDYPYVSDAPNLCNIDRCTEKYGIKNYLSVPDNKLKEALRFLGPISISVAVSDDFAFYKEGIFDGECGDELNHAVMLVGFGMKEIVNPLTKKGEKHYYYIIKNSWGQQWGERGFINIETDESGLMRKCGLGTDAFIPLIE
pIC50: −log10 of the molar value.

Consider the worked cases shown below.
{"Chemical Smiles": "CC(=O)NCCCc1sc(CCC(=O)CSCCCc2ccccc2)nc1CCc1ccccc1", "Measurement Target": "UniProt Q9NBD4", "pIC50": "< 4.48"}
{"Chemical Smiles": "O=C(CCc1nc(CO)c(CCc2ccccc2)s1)CSCCCc1ccccc1", "Measurement Target": "UniProt Q9NBD4", "pIC50": "< 4.90"}
{"Chemical Smiles": "NC(=O)CCc1sc(CCC(=O)CSCCCc2ccccc2)nc1CCc1ccccc1", "Measurement Target": "UniProt Q9NBD4", "pIC50": "< 4.48"}
{"Chemical Smiles": "O=C(C=Cc1nc(CCc2ccccc2)c(CCCO)s1)CSCCCc1ccccc1", "Measurement Target": "UniProt Q9NBD4", "pIC50": 5.18}
{"Chemical Smiles": "CC(=O)OCc1nc(CCC(=O)CSCCCc2ccccc2)sc1CCc1ccccc1", "Measurement Target": "UniProt Q9NBD4", "pIC50": "< 4.48"}
{"Chemical Smiles": "O=CCCc1sc(CCC(=O)CSCCCc2ccccc2)nc1CCc1ccccc1", "Measurement Target": "UniProt Q9NBD4", "pIC50": 4.41}

Tell us which pIC50 value is on record for NC(=O)CCc1sc(NC(=O)CSCCCc2ccccc2)nc1/C=C/c1ccccc1
4.82

Tell us which pIC50 value is on record for O=C(CCc1nc(CCc2ccccc2)c(CCCO)s1)CSCCCc1ccccc1
< 4.90

====

Target: Cysteine proteinase falcipain 3 (Plasmodium falciparum (isolate 3D7), UniProt Q8IIL0)
Sequence (Q8IIL0 whole entry): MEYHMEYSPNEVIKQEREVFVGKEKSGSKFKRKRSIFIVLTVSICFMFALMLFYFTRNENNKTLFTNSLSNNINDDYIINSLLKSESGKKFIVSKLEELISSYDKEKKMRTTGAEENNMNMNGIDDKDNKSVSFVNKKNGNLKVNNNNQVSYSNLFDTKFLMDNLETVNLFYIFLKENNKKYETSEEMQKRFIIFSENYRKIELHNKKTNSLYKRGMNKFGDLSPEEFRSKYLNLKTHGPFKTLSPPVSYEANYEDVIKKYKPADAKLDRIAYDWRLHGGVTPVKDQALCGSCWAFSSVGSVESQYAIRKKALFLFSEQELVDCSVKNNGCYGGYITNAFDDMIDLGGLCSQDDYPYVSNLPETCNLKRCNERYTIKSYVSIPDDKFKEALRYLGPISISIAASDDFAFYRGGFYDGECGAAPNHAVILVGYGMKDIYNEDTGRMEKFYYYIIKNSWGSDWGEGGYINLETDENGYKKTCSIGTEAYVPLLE
Assay: In Vitro Inhibition Assay
Examples of molecules with documented IC50 follow.

Consider the worked cases shown below.
{"Chemical Smiles": "CC(=O)OCc1nc(CCC(=O)CSCCCc2ccccc2)sc1CCc1ccccc1", "IC50": "> 50 µM"}
{"Chemical Smiles": "NC(=O)CCc1sc(CCC(=O)CSCCCc2ccccc2)nc1CCc1ccccc1", "IC50": "> 50 µM"}
{"Chemical Smiles": "O=C(C=Cc1nc(CCc2ccccc2)c(CCCO)s1)CSCCCc1ccccc1", "IC50": "29.4 µM"}

Tell us which IC50 value is on record for O=CCCc1sc(CCC(=O)CSCCCc2ccccc2)nc1CCc1ccccc1
> 50 µM
